assay: protein stability index of a GFP-peptide fusion (GPS, HEK-293T) (PSI 1-6); higher = more stable; conditions: treatment: DMSO; c terminus: a fixed tail appended;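 further: 24-mer peptide tiles fused after GFP, lentivirally expressed, FACS-sorted into six equal bins by GFP/DsRed ratio, decoded by Illumina sequencing, PSI is the read-weighted mean bin number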
Measured protein stability index by item

Example results:
{"columns": ["RESIDUES", "protein stability index"],
 "data": [
  ["FLTFDKQVLRFYAIWDDTDSMYGE [EFHC1]", 2.49],
  ["LSEGCRAELAETIVYARVLALHPE [CCDC3]", 2.92],
  ["TMPLYLEDDIRPDIKDDIYDPTYK [SCD]", 4.46],
  ["LREIAFTRQLHEKTSQLSYYYMGF [ATE1]", 2.31],
  ["KDAPCYESDTDIYETVAAATSEST [DRICH1]", 5.4]
]}

Exam item: Quickly give me recorded protein stability index for TVEKDKVTGETRVLSSTTLLPRQP [PALM]
Marked response: 4.86

Exam item: Quickly give me recorded protein stability index for SNLSYHLEKNHPEEFCEFVKSNTE [ZBED1]
Marked response: 4.72

Exam item: Quickly give me recorded protein stability index for ILGPSSAYTQTQFHNLRNTLDGYG [NFE2L1]
Marked response: 2.46

Exam item: Quickly give me recorded protein stability index for RGRYGPPSRRSENRVVVSGLPPSG [SRSF1]
Marked response: 4.08

Exam item: Quickly give me recorded protein stability index for LLHSQARLAELEAQVRKLELERAQ [FBF1]
Marked response: 3.68

Exam item: Quickly give me recorded protein stability index for LEQASSHIGNSTQATVRDAVVGRP [ATL3]
Marked response: 5.03

Exam item: Quickly give me recorded protein stability index for STSRHVMAPVMAHVDPEEPWSPCS [ADAMTS4]
Marked response: 4.32

Exam item: Quickly give me recorded protein stability index for EQNIIPSATNVTCYYQPAPYVSDG [TENT5C]
Marked response: 3.43

###

Measured protein stability index by item
test: protein stability index of a GFP-peptide fusion (GPS, HEK-293T) (PSI 1-6); higher = more stable; settings: treatment: MLN4924 1 uM, 8 h; c terminus: a fixed tail appended
# answer = number (no unit)

Example results:
{"columns": ["RESIDUES", "protein stability index"],
 "data": [
  ["ERLLCPSLLAGTADGSLRMDDPKG [M1AP]", 4.71],
  ["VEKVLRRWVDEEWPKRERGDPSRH [EDARADD]", 3.28],
  ["SFRELLTFFCTNATIHGAIRLVCS [SCNN1D]", 2.99],
  ["GTLSMGVPQIFKYGETCFPKGRFE [ZNF24]", 2.56],
  ["FYGLLFTSENLKLVHIVCHKKTTH [DFFB]", 2.58],
  ["VNLPISFFRKLLDCCQVSAPNRFF [NLN]", 2.62]
]}

# evaluate next
Exam item: Quickly give me recorded protein stability index for ISRAQYNALTLTFQRAMHDYNQAE [STX11]
Marked response: 2.35

###

experiment: protein stability index of a GFP-peptide fusion (GPS, HEK-293T) (PSI 1-6); higher = more stable; details: treatment: MLN4924 1 uM, 8 h; c terminus: a fixed tail appended
Measured protein stability index by item
# answer = number (no unit)

Example results:
{"columns": ["RESIDUES", "MEASUREMENT_NAME", "OBSERVED_VALUE"],
 "data": [
  ["GEIETIARFGSGPCKTRDDEPVCG [APMAP]", "protein stability index", 5.13],
  ["SWLEENVHEVLQAVDAGDPAVEAC [TCF25]", "protein stability index", 4.84],
  ["VPIGASIYVIGDLDTGTNYDYVRE [GAN]", "protein stability index", 2.21],
  ["NGVLLCFYSQEWYARQHCPLKNPT [SOAT1]", "protein stability index", 2.6]
]}

Exam item: Quickly give me recorded protein stability index for YEDGTELTEDYFPSVPDNAELVLL [DFFB]
Marked response: 3.7

Exam item: Quickly give me recorded protein stability index for KESAQCVGDEFLNCKLATRAKDFL [SNX8]
Marked response: 3.21

Exam item: Quickly give me recorded protein stability index for PYLLGPDKNLTEREVFNEIYPVWT [SLC19A2]
Marked response: 2.71

Exam item: Quickly give me recorded protein stability index for ESVVSSAVPAAATRTTSFKGTSPS [KCTD10]
Marked response: 5.25

Exam item: Quickly give me recorded protein stability index for EKSQAYPRRRRPGCYAYRQNPEAI [MYORG]
Marked response: 3.32

Exam item: Quickly give me recorded protein stability index for RIKEVEHMTRHLEESEKAMQERVQ [LRRC45]
Marked response: 4.99

Exam item: Quickly give me recorded protein stability index for DTHSWKSELQREMEALAAETNLLL [TEKT4]
Marked response: 3.59

Exam item: Quickly give me recorded protein stability index for SLASASPPLSGRSTPKLTSRSAAQ [PPFIA4]
Marked response: 4.6

Exam item: Quickly give me recorded protein stability index for YHYGVASCEACKAFFKRTIQGNIE [ESRRG]
Marked response: 2.65
